These data points were gathered from the supplement of paper PMC10567573.

B1: CD69 (parent)
chain: FVAENSSLHPESGQENDATSPHFS

Variants of: B1
experimentDescription: protein stability index of a GFP-peptide fusion (GPS, HEK-293T) (PSI 1-6); higher = more stable;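 further: lentivirally expressed fusions sorted by FACS into six bins by GFP to DsRed ratio, PSI derived from sequencing read proportions per bin multiplied by bin number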
runParameters: c terminus: a fixed tail appended
Record form. Attribute: protein stability index. Fill in for each entry.
Answers are plain numbers.

Some solved entries appear below for comparison.
>>> recordedresult("FCAENSSLHPESGQENDATSPHFS [V2C]")
4.82
>>> recordedresult("FVAENSSLHPESGQENDATGPHFS [S20G]")
3.17
>>> recordedresult("FVAENSALHPESGQENDATSPHFS [S7A]")
3.13
>>> recordedresult("FVARNSSLHPESGQENDATSPHFS [E4R]")
2.17
>>> recordedresult("FVAENSSLHPESGQENDATSPHRS [F23R]")
3.22

Please give protein stability index, item by item, for the list that follows.
1. FVAENSSLHPESGQENDATSPHDS [F23D]
2. FVAENSSLHPESGQENDATSPHFT [S24T]
3. FVAENSSLHPESGQENDATSPHFM [S24M]
4. FVAENSSPHPESGQENDATSPHFS [L8P]
5. FVAENSSLHPESGQENDATSRHFS [P21R]

[4.53, 3.27, 2.09, 3.41, 2.56]

response.value for FVAENSSLHPESGQENDATNPHFS [S20N] (field: protein stability index) = 2.71
